- Test system: OVCAR-5
- ASSAY_PROTOCOL: NCI tumour cell line growth inhibition, 48 h
The source made the active and inactive calls. Rule as the data show it: active = GI50 up to about 1.1 µM and inactive = higher.
MEASUREMENT_LABEL: GI50

Known GI50 results, listed for orientation:
CC(=O)OCCn1c(Cc2ccc(Cl)cc2)nn(C(C)=O)c1=O    > 100 µM (inactive)
CCOC(=O)C1C(=S)NC(=O)C1C#N (stereo unspecified)    > 100 µM (inactive)
NC(=O)N/N=C1/CCCC/C1=C\c1ccccc1    > 100 µM (inactive)
O=C(Nc1nccs1)c1cc(C2=CC=CC([N+](=O)[O-])C=C2)nc(S)n1 (stereo unspecified)    > 100 µM (inactive)
CC1C2CC(C(S(=O)(=O)O)C2=O)C1(C)C (stereo unspecified)    > 100 µM (inactive)
NCC(O)CNCC/C=C\C/C=C\C/C=C\C/C=C\C/C=C\C/C=C\CCCCC/C=C\CCNCC(O)CN (stereo unspecified)    1.94 µM (inactive)
O=C(OC(=O)n1ccc2ccccc21)n1ccc2ccccc21    > 100 µM (inactive)
O=[N+]([O-])c1ccc2c(c1)Sc1ccccc1N2CCCCCl    > 100 µM (inactive)

Any idea what its GI50 is? The compound is `Cc1ccccc1C(=N)c1ccccc1Cc1cccc2ccccc12`
37.5 µM (inactive)

Would you kindly repeat that for Cc1cc(OP2(=O)NCc3ncccc3O2)ccc1Cl (stereo unspecified) ?
> 100 µM (inactive)

Would you kindly repeat that for CCC1C(=O)C(O)[C@H]2[C@@H]3C(O)CC4=CC(=O)CC[C@]4(C)[C@H]3CC[C@]12C (stereo partly specified) ?
> 50 µM (inactive)
